I'd appreciate it if you could supply pIC50 values for the items below.
# targetUnderTest: Serine/threonine-protein kinase/endoribonuclease IRE1 [547-977] (Homo sapiens, UniProt O75460)
# Sequence (O75460 547-977): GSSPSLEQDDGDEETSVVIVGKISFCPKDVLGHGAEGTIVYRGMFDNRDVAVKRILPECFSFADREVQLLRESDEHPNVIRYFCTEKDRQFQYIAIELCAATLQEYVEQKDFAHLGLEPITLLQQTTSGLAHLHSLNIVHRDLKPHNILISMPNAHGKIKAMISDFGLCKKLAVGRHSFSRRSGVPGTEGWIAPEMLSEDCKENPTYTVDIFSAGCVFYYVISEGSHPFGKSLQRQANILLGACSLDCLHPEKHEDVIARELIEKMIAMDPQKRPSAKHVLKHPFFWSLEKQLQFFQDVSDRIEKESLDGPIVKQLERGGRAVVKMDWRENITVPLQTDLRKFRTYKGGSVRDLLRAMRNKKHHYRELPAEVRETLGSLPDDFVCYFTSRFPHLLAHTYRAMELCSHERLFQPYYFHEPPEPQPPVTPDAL
Please keep in mind that pIC50 is minus log10 of the molar concentration; only the number is needed.

Request: Could you tell me which pIC50 is on file for CC1(c2nc(-c3ccc(NC(=O)Nc4cccc(F)c4)c4ccccc34)c3c(N)nccn23)CC1 [KIRA analog, 13] ?
Response: 6.66

Request: Could you tell me which pIC50 is on file for CC1(c2nc(-c3ccc(NC(=O)Nc4cccc(C(F)(F)F)c4)c4ccccc34)c3c(N)nccn23)CC1 [KIRA analog, 3] ?
Response: 7.05

Request: Could you tell me which pIC50 is on file for CC1(c2nc(-c3ccc(NC(=O)Nc4ccccc4)c4ccccc34)c3c(N)nccn23)CC1 [KIRA analog, 12] ?
Response: 6.72
